The reported numbers originate from paper PMC5830749.

Entries and their increase in bulk fluorescence upon addition of H2O2
experiment: Bulk fluorescence response of dyes to H2O2; details: 100 µM H2O2, dye 5 µM, PBS pH 7.4, relative to free dye
The reply should be a number in fold, with the unit left off.

{"compound": "COc1ccc2c(c1)sc(-c1ccc(B3OCC(C)(C)CO3)cc1)[n+]2C.F[B-](F)(F)F [mBE02]", "result value": 3.6}
{"compound": "COc1ccc2c(c1)sc(-c1ccc(B3OC(C)(C)C(C)(C)O3)cc1)[n+]2C.F[B-](F)(F)F [mBE01]", "result value": 16.0}

Shift focus to the following entry.
Qu. Recorded increase in bulk fluorescence upon addition of H2O2 of COc1ccc2nc(-c3ccc(B4OC(C)(C)C(C)(C)O4)cc3)sc2c1 [BE01] , please.
Ans. 2.0
